The measured values listed here are drawn from PubChem BioAssay AID248.

- System: L1210 leukemia ip in BDF1 mice, survival T/C
- protocol.details: NCI In Vivo Anticancer Drug Screen. Data for tumor model L1210 Leukemia (intraperitoneal) in B6D2F1 (BDF1) mice
- experimental.context: endpoint: mean survival time; dose: 5.0 mg/kg/injection; schedule: Q01DX001 (ip); vehicle: saline; higher = longer survival
Inconclusive results and toxic doses are left out.
Parameter T/C: see the listing below.
quantity.name: T/C

{"molecule": "CCOP(=O)(OCC)O/N=C(/c1ccccc1)C(C)C", "result": "98 % of control"}
{"molecule": "CCCCCCCCCC[Se]C#N", "result": "112 % of control"}
{"molecule": "CC1(CCCOc2ccc(N)cc2)N=C(N)N=C(N)N1c1ccccc1 (stereo unspecified)", "result": "96 % of control"}
{"molecule": "C#CC(OC(=O)N(C)C)(c1ccccc1)c1ccc(F)cc1 (stereo unspecified)", "result": "108 % of control"}
{"molecule": "COc1ccc2nc3cc(Cl)ccc3c(NCCCCCN3CCCCC3)c2c1", "result": "97 % of control"}
{"molecule": "Cc1ccc2c(ccc3c[n+]4c5ccccc5ccc4n32)c1", "result": "97 % of control"}

====

- System: L1210 leukemia ip in BDF1 mice, survival T/C
- protocol.details: NCI In Vivo Anticancer Drug Screen. Data for tumor model L1210 Leukemia (intraperitoneal) in B6D2F1 (BDF1) mice
- experimental.context: endpoint: mean survival time; dose: 200.0 mg/kg/injection; schedule: Q01DX001 (ip); vehicle: saline with Tween-80; higher = longer survival
- Procedure: The antitumor activity of compounds was measured in mice bearing transplantable tumors. Survival or tumor size were measured and the results are expressed as the measurement made in the treated group (T) divided by the measurement made in the vehicle treated control group (C). The tumor model used in this assay is L1210 Leukemia (intraperitoneal) in B6D2F1 (BDF1) mice
Toxic doses and inconclusive results are not listed.
Parameter T/C: see the listing below.

{"compound": "O=C1c2ccccc2C(=O)N1CN1CCOCC1", "T/C": "94 % of control"}
{"compound": "O=S(=O)(Nc1ccccc1)c1ccc2c(Cl)cc(S(=O)(=O)Nc3ccccc3)cc2c1", "T/C": "93 % of control"}
{"compound": "CCOC(=O)C(NC=O)(C(=O)OCC)C(C)c1c[nH]c2ccccc12 (configuration not stated)", "T/C": "94 % of control"}
{"compound": "CN(C)c1ccc(/C=C(\\C#N)c2ccccc2)cc1", "T/C": "88 % of control"}
{"compound": "Cc1c(Cl)cccc1NC(=O)Nc1cccc2c(O)cccc12", "T/C": "90 % of control"}
{"compound": "CS(=O)CCCC(=O)O (configuration not stated)", "T/C": "94 % of control"}
{"compound": "CCN(CC)CCCOP(=O)(N(CC)CC)N(CCCl)CCCl (configuration not stated)", "T/C": "101 % of control"}
{"compound": "F[Si]1(c2cccc(Br)c2)c2ccccc2-c2ccccc21", "T/C": "100 % of control"}
{"compound": "O=S(=O)(Nc1ccc2ccccc2c1)c1ccccc1", "T/C": "97 % of control"}
{"compound": "Cc1c(Cl)cccc1NC(=O)Oc1ccccc1Cc1ccccc1", "T/C": "105 % of control"}
{"compound": "O=C1COC(C(Cl)(Cl)Cl)CN1 (configuration not stated)", "T/C": "105 % of control"}
{"compound": "O=C(c1ccccc1[N+](=O)[O-])C(Br)C(Br)c1cccc2ccccc12 (configuration not stated)", "T/C": "96 % of control"}
